Kindly state binding signal for each of the entries shown.
Molecular target: GST-Nv-NF-kB (Ser allele) (Nematostella vectensis, UniProt A7UNT2 2-411)
Sequence: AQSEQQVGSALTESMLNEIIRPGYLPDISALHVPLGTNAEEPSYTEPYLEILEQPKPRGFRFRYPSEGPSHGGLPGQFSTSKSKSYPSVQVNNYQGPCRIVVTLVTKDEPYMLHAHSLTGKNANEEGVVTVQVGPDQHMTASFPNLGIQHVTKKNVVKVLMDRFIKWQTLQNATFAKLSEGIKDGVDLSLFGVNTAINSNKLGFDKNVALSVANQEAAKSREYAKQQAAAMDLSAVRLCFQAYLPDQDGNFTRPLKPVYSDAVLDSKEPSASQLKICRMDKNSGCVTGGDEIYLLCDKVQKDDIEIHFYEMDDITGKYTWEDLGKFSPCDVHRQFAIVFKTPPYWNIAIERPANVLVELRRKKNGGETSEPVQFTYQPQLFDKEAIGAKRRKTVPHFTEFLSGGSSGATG
Assay: protein-binding microarray (PBM); PBM: ~300 nM protein, 6 mM HEPES pH 7.8, 80 mM KCl, 0.5 mM EDTA, 0.5 mM EGTA, 6% glycerol, 35 ng/ul poly-dIdC, 1% milk, 1 h, room temperature; Ap Aiptasia and Nv Nematostella (sea anemones) / Co Capsaspora / Aq Amphimedon (sponge) / Dm Drosophila / Hu human; RHD is the Rel homology domain; high values mean tight binding
Details: dsDNA, one strand shown
For clarity, give the value followed by its unit.

So what does the record say about binding signal for CCGATTAACATCAAAAATTCCCGTGATGTTAATCGGGTCTTGATTCGCTTGACGCTGCTG ? 8.06 z-score

Find the recorded binding signal belonging to CCGATTAACATCAGGTAATTTTATGATGTTAATCGGGTCTTGATTCGCTTGACGCTGCTG and report it. 5.66 z-score

Consider the sequence CCGATTAACATCAGGCAGTTCCCTGATGTTAATCGGGTCTTGATTCGCTTGACGCTGCTG and give its measured binding signal. 1.25 z-score

// lookup binding signal for CCGATTAACATCAATAAAGTCCCTGATGTTAATCGGGTCTTGATTCGCTTGACGCTGCTG 7.32 z-score

Recorded binding signal of CCGATTAACATCAGAACTCCCCCTGATGTTAATCGGGTCTTGATTCGCTTGACGCTGCTG , please. 7.12 z-score

Data provenance: paper PMC5700166
